Cited source: patent US10793542B2

Consider the following compounds; for each one, report its pIC50.
target: Smo D473H mutant (Homo sapiens, UniProt Q99835, D473H); assay: Reporter assay of C3H10T1/2-Gli-Luc cells transfected with Smo D473H mutant, without SAG; conditions: C3H10T1/2 cells transfected with pLPCX-SMO-D473H, no SAG, 48 hr; read-out: Inhibition of C3H10T1/2-Gli-Luc-Smo-D473H [IC50
Sequence (Q99835 28-787 D473H): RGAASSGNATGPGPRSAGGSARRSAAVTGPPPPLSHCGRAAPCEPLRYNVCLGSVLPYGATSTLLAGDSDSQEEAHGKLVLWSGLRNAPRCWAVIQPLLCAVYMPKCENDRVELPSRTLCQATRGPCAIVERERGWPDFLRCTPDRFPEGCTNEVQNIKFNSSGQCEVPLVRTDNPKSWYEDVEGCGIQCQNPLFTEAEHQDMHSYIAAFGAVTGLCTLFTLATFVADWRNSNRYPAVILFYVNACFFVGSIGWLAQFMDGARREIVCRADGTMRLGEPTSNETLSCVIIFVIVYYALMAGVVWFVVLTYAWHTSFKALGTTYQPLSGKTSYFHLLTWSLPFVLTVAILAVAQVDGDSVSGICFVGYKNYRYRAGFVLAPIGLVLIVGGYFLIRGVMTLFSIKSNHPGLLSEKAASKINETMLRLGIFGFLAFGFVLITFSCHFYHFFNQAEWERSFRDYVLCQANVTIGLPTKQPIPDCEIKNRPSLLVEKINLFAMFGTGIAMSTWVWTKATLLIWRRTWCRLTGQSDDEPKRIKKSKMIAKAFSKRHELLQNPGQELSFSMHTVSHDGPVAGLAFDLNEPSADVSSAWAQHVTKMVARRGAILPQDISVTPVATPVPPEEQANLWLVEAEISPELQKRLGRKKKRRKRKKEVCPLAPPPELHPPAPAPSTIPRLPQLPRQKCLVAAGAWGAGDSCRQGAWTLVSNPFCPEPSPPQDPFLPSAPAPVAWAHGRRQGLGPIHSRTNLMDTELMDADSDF
pIC50: −log10 of the molar value.

**Q:** Given COc1cnc(Nc2ccc(C(=O)Nc3cc(CN4CCOCC4)ccc3C)cc2)nc1-c1ccc(C#N)cc1 [Compound 49] , state its recorded pIC50.
**A:** < 6.00

**Q:** Given COc1cnc(Nc2ccc(C(=O)Nc3cc(CN4CCN(C)CC4)ccc3C)cc2)nc1-c1ccc(C#N)cc1 [Compound 51] , state its recorded pIC50.
**A:** 6.00 to 7.00

**Q:** Given CCOc1cnc(Nc2ccc(C(=O)Nc3cc(CN4CCOCC4)ccc3C)cc2)nc1-c1ccc(OC(F)(F)F)cc1 [Compound 72] , state its recorded pIC50.
**A:** > 7.00

**Q:** Given CSc1cnc(Nc2ccc(C(=O)Nc3cc(CN(C)C)ccc3C)cc2)nc1-c1ccc(F)cc1 [Compound 31] , state its recorded pIC50.
**A:** 6.00 to 7.00
